# METHOD SUMMARY: Protein binding in human serum
# Assay type: ADME, cell-free
# SETUP CONDITIONS: read-out: PB
MEASURE: fraction unbound

# COMPOUND, MEAS VALUE
data = [
    ("CC(=O)O[C@H]1C[C@@]2(C)[C@@H](C[C@@H](O)[C@H]3[C@@]4(C)CC[C@@H](O)[C@@H](C)[C@@H]4CC[C@@]32C)/C1=C(\\CCC=C(C)C)C(=O)O [FUSIDIC ACID]", "0.03 to 0.05"),
]

All values here come from ChEMBL document CHEMBL4373649.
